Source of measurements: the supplement of paper PMC6757056

B1: library; a variant is named by its letters at N, in order (parent)
chain: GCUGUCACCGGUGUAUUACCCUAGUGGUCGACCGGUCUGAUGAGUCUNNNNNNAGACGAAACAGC

Variants of: B1
Experiment: normalized RNA/DNA level with ligand (relative to sTRSVctl = 100) (log10 (% of sTRSVctl)); ligand: hypoxanthine (xanthine aptamer); higher = less ribozyme self-cleavage, higher mRNA level
Conditions: ligand concentration (+) RNA-Seq: 5 mM, HEK293T, reporter: mCherry (pCS4076), ligand present: yes
Quantity measured: normalized RNA/DNA level with ligand (log10)
A bare number is all that is needed in reply.

Illustrative cases are given below, each with its answer.
Variant notation | Assay result
ACUUCA | 1.95
UGGAAU | 1.89
AGACCC | 1.94
UGUUCA | 1.96
UACUCA | 1.95

Lookup: Identify measured normalized RNA/DNA level with ligand (log10) associated with UUAAAA
Found: 1.97
